The entries below come with measured IC50 values attached.
Target: LRRK2(G2019S mutation, GST-LRRK2(amino acids 970-2527)) (Homo sapiens (Human), UniProt Q5S007, G2019S)
Sequence (Q5S007 970-2527 G2019S): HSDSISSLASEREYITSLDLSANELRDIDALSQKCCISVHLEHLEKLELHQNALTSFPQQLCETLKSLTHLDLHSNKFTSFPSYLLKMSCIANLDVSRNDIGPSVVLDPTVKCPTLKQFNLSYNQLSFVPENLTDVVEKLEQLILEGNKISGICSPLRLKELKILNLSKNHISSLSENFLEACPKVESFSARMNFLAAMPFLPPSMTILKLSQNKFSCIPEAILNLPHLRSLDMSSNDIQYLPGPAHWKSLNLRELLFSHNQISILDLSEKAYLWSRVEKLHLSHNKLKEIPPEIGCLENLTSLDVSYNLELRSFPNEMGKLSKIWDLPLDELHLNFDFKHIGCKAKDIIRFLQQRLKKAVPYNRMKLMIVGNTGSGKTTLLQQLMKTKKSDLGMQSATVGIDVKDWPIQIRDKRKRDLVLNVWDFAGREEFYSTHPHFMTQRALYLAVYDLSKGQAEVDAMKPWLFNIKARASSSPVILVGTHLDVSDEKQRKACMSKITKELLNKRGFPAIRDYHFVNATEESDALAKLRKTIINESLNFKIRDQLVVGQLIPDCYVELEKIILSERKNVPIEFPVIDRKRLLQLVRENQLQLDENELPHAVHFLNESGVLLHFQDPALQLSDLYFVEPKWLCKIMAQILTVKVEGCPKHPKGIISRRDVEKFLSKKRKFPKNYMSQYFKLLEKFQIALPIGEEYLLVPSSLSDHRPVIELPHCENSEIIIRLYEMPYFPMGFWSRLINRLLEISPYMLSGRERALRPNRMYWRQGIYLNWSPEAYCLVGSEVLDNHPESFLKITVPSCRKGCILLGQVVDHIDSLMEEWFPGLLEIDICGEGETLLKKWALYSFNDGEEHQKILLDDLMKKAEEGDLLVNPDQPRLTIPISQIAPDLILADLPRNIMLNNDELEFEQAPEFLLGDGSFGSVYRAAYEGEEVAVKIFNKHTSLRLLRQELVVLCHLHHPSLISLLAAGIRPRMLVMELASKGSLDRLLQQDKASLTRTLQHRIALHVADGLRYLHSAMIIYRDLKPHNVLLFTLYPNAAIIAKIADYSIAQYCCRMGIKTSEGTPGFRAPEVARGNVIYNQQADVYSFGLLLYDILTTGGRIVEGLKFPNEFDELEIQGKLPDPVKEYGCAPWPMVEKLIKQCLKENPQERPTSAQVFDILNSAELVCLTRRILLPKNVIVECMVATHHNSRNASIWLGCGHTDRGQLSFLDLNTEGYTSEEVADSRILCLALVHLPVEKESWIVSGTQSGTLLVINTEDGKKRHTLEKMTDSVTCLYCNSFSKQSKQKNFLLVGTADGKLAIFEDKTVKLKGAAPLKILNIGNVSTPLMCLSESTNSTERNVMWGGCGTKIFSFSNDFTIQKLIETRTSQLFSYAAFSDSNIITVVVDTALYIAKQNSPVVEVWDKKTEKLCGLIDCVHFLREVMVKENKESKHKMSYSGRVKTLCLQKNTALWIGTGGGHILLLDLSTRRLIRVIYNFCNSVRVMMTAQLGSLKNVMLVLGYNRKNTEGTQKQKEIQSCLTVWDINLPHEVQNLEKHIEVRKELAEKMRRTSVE
Test: LRRK2 Km ATP LanthaScreen Assay
Format: biochemical
Conditions: Km ATP (184 μM ATP solution), G2019S LRRK2, mean IC50
Just the number in nM, nothing appended.

Study these solved cases before continuing.
CC(C)Oc1ccc2[nH]nc(-c3cc(N4CC[C@H](N)C4)ncn3)c2c1 [Example D44]
6.68
CC(C)Oc1ccc2[nH]nc(-c3cc(N4CCCC4)ncn3)c2c1 [Example J5]
13.9

Ask: // returns reported IC50 for input CC(C)Oc1ccc2[nH]nc(-c3cc(N4CCN(C(C)C)C(=O)C4)ncn3)c2c1 [Example D29]
Result: 5.28

Ask: I am curious: what IC50 value has been reported for CN(C)[C@@H]1CCN(c2cc(-c3n[nH]c4cc(F)c(-c5cnn(C)c5)cc34)ncn2)C1 [Example L24] ?
Result: 58
